Tested on: AMP-evolved E. coli lines
Assay: Cross-resistance / collateral sensitivity: relative MIC change of 38 laboratory-evolved AMP-resistant lines vs parental strain
Type: cell-based, Escherichia coli
Conditions: AMP-adapted line CAP18_10; measured here
reported-endpoint: Relative change in MIC (MIC of the AMP-adpated line / MIC of the ancestral strain)
// print number alone

Record RRRPRPPYLPRPRPPPFFPPRLPPRIPPGFPPRFPPRFP [PR39, PR-39, cathelicidin, source pig; cluster C4] . Reported Relative change in MIC (MIC of the AMP-adpated line / MIC of the ancestral strain): 0.83

Record RFRPPIRRPPIRPPFYPPFRPPIRPPIFPPIRPPFRPPLGPFP [BAC5, Bactenecin 5, antimicrobial peptide from bovine neutrophils; cluster C4] . Reported Relative change in MIC (MIC of the AMP-adpated line / MIC of the ancestral strain): 0.915

Record TSSPPAAVVVRRRRRRRRRRRRRRRRRRR [PROA, Protamine, source herring, purchased from Sigma-Aldrich; cluster C3] . Reported Relative change in MIC (MIC of the AMP-adpated line / MIC of the ancestral strain): 1.44

Record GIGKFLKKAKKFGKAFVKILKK [PEX, Pexiganan, synthetic Magainin derivative; disrupts cell membrane; cluster C2] . Reported Relative change in MIC (MIC of the AMP-adpated line / MIC of the ancestral strain): 2.488
